experimental_target: DNA gyrase (Staphylococcus aureus) (UniProt P0A0K8+P20831)
Sequence (P0A0K8 2-644 limits assumed): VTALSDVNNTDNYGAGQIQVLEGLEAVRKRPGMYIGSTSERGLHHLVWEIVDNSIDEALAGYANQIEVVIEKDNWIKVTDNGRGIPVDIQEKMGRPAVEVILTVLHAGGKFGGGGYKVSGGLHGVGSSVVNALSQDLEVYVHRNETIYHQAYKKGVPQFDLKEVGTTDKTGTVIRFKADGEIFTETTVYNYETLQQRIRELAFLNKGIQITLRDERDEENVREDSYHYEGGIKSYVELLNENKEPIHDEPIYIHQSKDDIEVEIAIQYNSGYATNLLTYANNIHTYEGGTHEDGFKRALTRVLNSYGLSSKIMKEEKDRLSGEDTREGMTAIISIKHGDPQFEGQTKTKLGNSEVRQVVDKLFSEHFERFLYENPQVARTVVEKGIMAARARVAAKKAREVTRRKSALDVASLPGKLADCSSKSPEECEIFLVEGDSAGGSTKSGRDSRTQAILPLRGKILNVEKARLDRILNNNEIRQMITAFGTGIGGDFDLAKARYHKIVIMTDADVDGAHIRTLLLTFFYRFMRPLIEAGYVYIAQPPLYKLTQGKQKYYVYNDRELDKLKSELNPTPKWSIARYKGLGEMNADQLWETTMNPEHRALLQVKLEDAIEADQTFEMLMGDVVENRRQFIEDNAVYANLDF
Sequence (P20831 whole entry partner): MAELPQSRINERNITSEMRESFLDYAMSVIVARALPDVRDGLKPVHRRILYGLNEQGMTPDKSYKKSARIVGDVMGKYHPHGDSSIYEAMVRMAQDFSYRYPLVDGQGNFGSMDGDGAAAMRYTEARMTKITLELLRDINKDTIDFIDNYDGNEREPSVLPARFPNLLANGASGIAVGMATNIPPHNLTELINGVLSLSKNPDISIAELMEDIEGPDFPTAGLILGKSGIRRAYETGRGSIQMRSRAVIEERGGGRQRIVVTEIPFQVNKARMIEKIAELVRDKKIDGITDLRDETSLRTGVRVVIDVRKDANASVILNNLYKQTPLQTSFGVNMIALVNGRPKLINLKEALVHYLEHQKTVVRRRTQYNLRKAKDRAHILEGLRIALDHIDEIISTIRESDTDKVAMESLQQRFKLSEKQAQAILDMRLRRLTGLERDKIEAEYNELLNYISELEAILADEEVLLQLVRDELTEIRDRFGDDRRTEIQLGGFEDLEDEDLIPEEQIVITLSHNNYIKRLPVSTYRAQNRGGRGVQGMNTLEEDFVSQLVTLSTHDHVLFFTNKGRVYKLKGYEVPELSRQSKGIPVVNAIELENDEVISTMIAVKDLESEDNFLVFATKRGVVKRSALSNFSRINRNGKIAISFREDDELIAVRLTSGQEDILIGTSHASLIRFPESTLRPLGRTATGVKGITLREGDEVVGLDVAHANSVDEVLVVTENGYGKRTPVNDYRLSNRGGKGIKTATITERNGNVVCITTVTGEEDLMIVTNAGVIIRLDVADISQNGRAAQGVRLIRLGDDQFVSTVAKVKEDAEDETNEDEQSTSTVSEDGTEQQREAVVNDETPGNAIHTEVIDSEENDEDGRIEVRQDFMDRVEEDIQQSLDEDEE
MIC values for the compounds below.
assay_endpoint: MIC (µM)

cpd_smiles=O=C(O)[C@H](Cc1ccccc1)N1C(=O)/C(=C/c2cccc(Oc3ccccc3)c2)SC1=S experimental_target="DNA gyrase (Staphylococcus aureus) (UniProt P0A0K8+P20831)" assay_endpoint=MIC result_value=50
cpd_smiles=O=C(O)[C@H](Cc1ccccc1)N1C(=O)/C(=C/c2cccc(OCc3ccccc3)c2)SC1=S experimental_target="DNA gyrase (Staphylococcus aureus) (UniProt P0A0K8+P20831)" assay_endpoint=MIC result_value=25
cpd_smiles=O=C(O)[C@H](Cc1ccccc1)N1C(=O)/C(=C/c2cccc(-c3ccc(Cl)c(Cl)c3)c2)SC1=S experimental_target="DNA gyrase (Staphylococcus aureus) (UniProt P0A0K8+P20831)" assay_endpoint=MIC result_value=5
